# SYSTEM UNDER TEST: Human recombinant 6-His tagged cyclophilin D (CypD) (Homo sapiens)
# Construct: 6-His
# ASSAY INFO: Protease-free PPIase assay, cyclophilin D
# Type: biochemical
# CONDITION: human recombinant 6-His CypD, 10 °C, SUC-AAPF-pNA substrate; read-out: CypD Protease-free PPIase Assay Ki
Starred links: 1 amine or outer side, 2 acyl side, 3 side chain; linkers in the order of their positions; H or OH if unused. Non-standard residues stand in square brackets, D forms with d. Residues, ends and D or L forms follow the SMILES beside them. X1 = C[C@@H]1CCO[C@H]1[C@H](C(=O)[*:2])N(C)[*:1]; d(aThr) = C[C@@H](O)[C@@H](N)C(=O)O; NMeL = CN[C@@H](CC(C)C)C(=O)O; dNMeL = CN[C@H](CC(C)C)C(=O)O; dNMeV = CN[C@@H](C(=O)O)C(C)C; dNMeA = CN[C@H](C)C(=O)O
Each entry below carries its reported Ki.
The reply should be a number in nM, with the unit left off.

Worked cases, Ki given:
CCC[C@@H]1C(=O)N(C)[C@@H](CC(C)C)C(=O)N[C@H](C(C)C)C(=O)N(C)[C@H](CC(C)C)C(=O)N[C@H](C)C(=O)N[C@@H](C)C(=O)N(C)[C@H](CC(C)C)C(=O)N(C)[C@H](CC(C)C)C(=O)N(C)[C@H](C(C)C)C(=O)N(C)[C@H]([C@@H]2OCC[C@H]2C)C(=O)N[C@H](CC)C(=O)N1C = 39
CC(C)C[C@@H]1C(=O)N(C)[C@H](CC(C)C)C(=O)N(C)[C@H](C(C)C)C(=O)N(C)[C@H]([C@@H]2OCC[C@H]2C)C(=O)N[C@H]([C@@H](C)O)C(=O)N(C)[C@H](C)C(=O)N(C)[C@@H](CC(C)C)C(=O)N[C@H](C(C)C)C(=O)N(C)[C@H](CC(C)C)C(=O)N[C@H](C)C(=O)N[C@@H](C)C(=O)N1C [Compound 11] (cyclo(A[dNMeL][dNMeL][dNMeV][X1][d(aThr)][dNMeA][NMeL][dV][dNMeL][dA])) = 18
CC(C)C[C@@H]1C(=O)N(C)[C@H](CC(C)C)C(=O)N(C)[C@H](C(C)C)C(=O)N(C)[C@H]([C@@H]2OCC[C@H]2C)C(=O)N[C@H](C(C)C)C(=O)N(C)CC(=O)N(C)[C@@H](CC(C)C)C(=O)N[C@H](C(C)C)C(=O)N(C)[C@H](CC(C)C)C(=O)N[C@H](C)C(=O)N[C@@H](C)C(=O)N1C = 81

Find the recorded Ki belonging to "CC[C@H]1NC(=O)[C@@H]([C@@H]2OCN(C)C[C@H]2C)N(C)C(=O)[C@@H](C(C)C)N(C)C(=O)[C@@H](CC(C)C)N(C)C(=O)[C@@H](CC(C)C)N(C)C(=O)[C@H](C)NC(=O)[C@@H](C)NC(=O)[C@@H](CC(C)C)N(C)C(=O)[C@@H](C(C)C)NC(=O)[C@H](CC(C)C)N(C)C(=O)[C@@H](C)N(C)C1=O" and report it. 79

Can you check CC[C@H]1NC(=O)[C@@H](C2OC(C)C[C@H]2C)N(C)C(=O)[C@@H](C(C)C)N(C)C(=O)[C@@H](CC(C)C)N(C)C(=O)[C@@H](CC(C)C)N(C)C(=O)[C@H](C)NC(=O)[C@@H](C)NC(=O)[C@@H](CC(C)C)N(C)C(=O)[C@@H](C(C)C)NC(=O)[C@H](CC(C)C)N(C)C(=O)[C@@H](C)N(C)C1=O (stereo partly drawn) next? 64

Can you check "CC[C@H]1NC(=O)[C@H]([C@H]2NCC[C@H]2C)N(C)C(=O)[C@@H](C(C)C)N(C)C(=O)[C@@H](CC(C)C)N(C)C(=O)[C@@H](CC(C)C)N(C)C(=O)[C@H](C)NC(=O)[C@@H](C)NC(=O)[C@@H](CC(C)C)N(C)C(=O)[C@@H](C(C)C)NC(=O)[C@H](CC(C)C)N(C)C(=O)[C@@H](C)N(C)C1=O" next? 36

Can you check "CC[C@H]1NC(=O)[C@@H]([C@@H]2OC(=O)N(C)C[C@H]2C)N(C)C(=O)[C@@H](C(C)C)N(C)C(=O)[C@@H](CC(C)C)N(C)C(=O)[C@@H](CC(C)C)N(C)C(=O)[C@H](C)NC(=O)[C@@H](C)NC(=O)[C@@H](CC(C)C)N(C)C(=O)[C@@H](C(C)C)NC(=O)[C@H](CC(C)C)N(C)C(=O)[C@@H](C)N(C)C1=O" next? 160

Can you check "CC[C@H]1NC(=O)[C@@H]([C@@H]2OCC[C@H]2C)N(C)C(=O)[C@@H](C(C)C)N(C)C(=O)[C@@H](CC(C)C)N(C)C(=O)[C@@H](CC(C)C)N(C)C(=O)[C@H](C)NC(=O)[C@@H](C)NC(=O)[C@@H](CC(C)C)N(C)C(=O)[C@@H](C(C)C)NC(=O)[C@H](CC(C)C)N(C)C(=O)CN(C)C1=O" next? 920

Can you check "CC[C@H]1NC(=O)[C@@H]([C@@H]2OCCCC[C@H]2C)N(C)C(=O)[C@@H](C(C)C)N(C)C(=O)[C@@H](CC(C)C)N(C)C(=O)[C@@H](CC(C)C)N(C)C(=O)[C@H](C)NC(=O)[C@@H](C)NC(=O)[C@@H](CC(C)C)N(C)C(=O)[C@@H](C(C)C)NC(=O)[C@H](CC(C)C)N(C)C(=O)CN(C)C1=O" next? 560

Can you check "CC[C@H]1NC(=O)[C@@H]([C@@H]2OCN(C)C[C@H]2C)N(C)C(=O)[C@@H](C(C)C)N(C)C(=O)[C@@H](CC(C)C)N(C)C(=O)[C@@H](CC(C)C)N(C)C(=O)[C@H](C)NC(=O)[C@@H](C)NC(=O)[C@@H](CC(C)C)N(C)C(=O)[C@@H](C(C)C)NC(=O)[C@H](CC(C)C)N(C)C(=O)CN(C)C1=O" next? 280

Can you check "CC[C@H]1NC(=O)[C@H]([C@@H]2[C@H](C)CCN2C)N(C)C(=O)[C@@H](C(C)C)N(C)C(=O)[C@@H](CC(C)C)N(C)C(=O)[C@@H](CC(C)C)N(C)C(=O)[C@H](C)NC(=O)[C@@H](C)NC(=O)[C@@H](CC(C)C)N(C)C(=O)[C@@H](C(C)C)NC(=O)[C@H](CC(C)C)N(C)C(=O)[C@@H](C)N(C)C1=O" next? 130

Can you check "CC(C)C[C@@H]1C(=O)N(C)[C@H](CC(C)C)C(=O)N(C)[C@H](C(C)C)C(=O)N(C)[C@H]([C@@H]2OCC[C@H]2C)C(=O)N[C@H]([C@@H](C)O)C(=O)N(C)CC(=O)N(C)[C@@H](CC(C)C)C(=O)N[C@H](C(C)C)C(=O)N(C)[C@H](CC(C)C)C(=O)N[C@H](C)C(=O)N[C@@H](C)C(=O)N1C" next? 105

---

# SYSTEM UNDER TEST: Human recombinant 6-His tagged cyclophilin D (CypD) (Homo sapiens, UniProt P30405)
# Construct: 6-His
# Sequence (P30405 30-207): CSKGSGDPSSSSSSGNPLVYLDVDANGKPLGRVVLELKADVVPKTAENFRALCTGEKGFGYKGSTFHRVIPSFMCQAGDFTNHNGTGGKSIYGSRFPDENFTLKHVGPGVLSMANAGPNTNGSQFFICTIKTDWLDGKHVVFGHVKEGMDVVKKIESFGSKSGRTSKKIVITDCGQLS
# ASSAY INFO: Protease-free PPIase assay, cyclophilin D
# Type: biochemical
# CONDITION: human recombinant 6-His CypD, 10 °C, SUC-AAPF-pNA substrate; read-out: CypD Protease-free PPIase Assay Ki
# Procedure: Protease-Free PPIase Assay The protease-free PPIase assay measures the rate of cis to trans conversion of a peptide substrate catalyzed by the enzyme cyclophilin A or D. Addition of a cyclophilin inhibitor (e.g., a test compound) slows the catalyzed rate and a Ki value is obtained. […] All readings were taken with an Agilent 8453 Spectrophotometer which consisted of a cuvette holder, stirrer and chiller to maintain a stirred cuvette temperature of 10.0±0.1° C. […]
Starred links: 1 amine or outer side, 2 acyl side, 3 side chain; linkers in the order of their positions; H or OH if unused. Non-standard residues stand in square brackets, D forms with d. Residues, ends and D or L forms follow the SMILES beside them. X2 = C[C@@H]1CC(O)O[C@H]1[C@H](C(=O)[*:2])N(C)[*:1]; X1 = C[C@@H]1CCO[C@H]1[C@H](C(=O)[*:2])N(C)[*:1]; NMeL = CN[C@@H](CC(C)C)C(=O)O; dNMeL = CN[C@H](CC(C)C)C(=O)O; dNMeV = CN[C@@H](C(=O)O)C(C)C; dNMeA = CN[C@H](C)C(=O)O
Each entry below carries its reported pKi.
Quick note: pKi values are minus log10 of concentrations in mol/L.

Worked cases, pKi given:
CC[C@H]1NC(=O)[C@@H]([C@@H]2OCCC[C@H]2C)N(C)C(=O)[C@@H](C(C)C)N(C)C(=O)[C@@H](CC(C)C)N(C)C(=O)[C@@H](CC(C)C)N(C)C(=O)[C@H](C)NC(=O)[C@@H](C)NC(=O)[C@@H](CC(C)C)N(C)C(=O)[C@@H](C(C)C)NC(=O)[C@H](CC(C)C)N(C)C(=O)[C@@H](C)N(C)C1=O = 7.34
CC(C)C[C@@H]1C(=O)N(C)[C@H](CC(C)C)C(=O)N(C)[C@H](C(C)C)C(=O)N(C)[C@H]([C@@H]2OCC[C@H]2C)C(=O)N[C@H](C)C(=O)N(C)[C@H](C)C(=O)N(C)[C@@H](CC(C)C)C(=O)N[C@H](C(C)C)C(=O)N(C)[C@H](CC(C)C)C(=O)N[C@H](C)C(=O)N[C@@H](C)C(=O)N1C [Compound 10] (cyclo(A[dNMeL][dNMeL][dNMeV][X1][dA][dNMeA][NMeL][dV][dNMeL][dA])) = 6.17
CC[C@H]1NC(=O)[C@@H]([C@@H]2OCC[C@H]2C)N(C)C(=O)[C@@H](C(C)C)N(C)C(=O)[C@@H](CC(C)C)N(C)C(=O)[C@@H](CC(C)C)N(C)C(=O)[C@H](C)NC(=O)[C@@H](C)NC(=O)[C@@H](CC(C)C)N(C)C(=O)[C@@H](C(C)C)NC(=O)[C@H](CC(C)C)N(C)C(=O)[C@@H](C)N(C)C1=O = 8.36
CC[C@H]1NC(=O)[C@@H]([C@@H]2OCC[C@H]2C)N(C)C(=O)[C@@H](C(C)C)N(C)C(=O)[C@@H](CC(C)C)N(C)C(=O)[C@@H](CC(C)C)N(C)C(=O)[C@H](C)NC(=O)[C@@H](C)NC(=O)[C@@H](CC(C)C)N(C)C(=O)[C@@H](C(C)C)NC(=O)[C@H](CC(C)C)N(C)C(=O)[C@@H](C(F)F)N(C)C1=O = 7.84

Find the recorded pKi belonging to CC(C)C[C@@H]1C(=O)N(C)[C@H](CC(C)C)C(=O)N(C)[C@H](C(C)C)C(=O)N(C)[C@H]([C@@H]2OC(O)C[C@H]2C)C(=O)N[C@H](C(C)C)C(=O)N(C)[C@H](C)C(=O)N(C)[C@@H](CC(C)C)C(=O)N[C@H](C(C)C)C(=O)N(C)[C@H](CC(C)C)C(=O)N[C@H](C)C(=O)N[C@@H](C)C(=O)N1C (stereo partly drawn) [Compound 14] (cyclo(A[dNMeL][dNMeL][dNMeV][X2][dV][dNMeA][NMeL][dV][dNMeL][dA])) and report it. 8.08

Can you check "CC[C@H]1NC(=O)[C@@H]([C@@H]2OCCCC[C@H]2C)N(C)C(=O)[C@@H](C(C)C)N(C)C(=O)[C@@H](CC(C)C)N(C)C(=O)[C@@H](CC(C)C)N(C)C(=O)[C@H](C)NC(=O)[C@@H](C)NC(=O)[C@@H](CC(C)C)N(C)C(=O)[C@@H](C(C)C)NC(=O)[C@H](CC(C)C)N(C)C(=O)[C@@H](C)N(C)C1=O" next? 7.07

Can you check CC(C)C[C@@H]1C(=O)N(C)[C@H](CC(C)C)C(=O)N(C)[C@H](C(C)C)C(=O)N(C)[C@H]([C@@H]2OC(O)C[C@H]2C)C(=O)N[C@H](C(C)C)C(=O)N(C)CC(=O)N(C)[C@@H](CC(C)C)C(=O)N[C@H](C(C)C)C(=O)N(C)[C@H](CC(C)C)C(=O)N[C@H](C)C(=O)N[C@@H](C)C(=O)N1C (stereo partly drawn) next? 6.08

Can you check "CC[C@@H]1C(=O)N(C)[C@@H](CC(C)C)C(=O)N[C@H](C(C)C)C(=O)N(C)[C@H](CC(C)C)C(=O)N[C@H](C)C(=O)N[C@@H](C)C(=O)N(C)[C@H](CC(C)C)C(=O)N(C)[C@H](CC(C)C)C(=O)N(C)[C@H](C(C)C)C(=O)N(C)[C@H]([C@@H]2OCC[C@H]2C)C(=O)N[C@H](CC)C(=O)N1C" next? 8.01

Can you check CC[C@H]1NC(=O)[C@@H]([C@@H]2OC(O)C[C@H]2C)N(C)C(=O)[C@@H](C(C)C)N(C)C(=O)[C@@H](CC(C)C)N(C)C(=O)[C@@H](CC(C)C)N(C)C(=O)[C@H](C)NC(=O)[C@@H](C)NC(=O)[C@@H](CC(C)C)N(C)C(=O)[C@@H](C(C)C)NC(=O)[C@H](CC(C)C)N(C)C(=O)[C@@H](C)N(C)C1=O (stereo partly drawn) next? 7.92
